Test system: NCI-H460 lung
Test: NCI tumour cell line growth inhibition, 48 h
value_kind: TGI (µM)
Kindly provide the numeric value in µM only, without the unit symbol.

Just so you know, measured TGI for C#CC1(OC(C)=O)CCC2C3CC=C4C=C(OC(C)=O)CCC4(C)C3CCC21C (stereo not given) came out at 61.8

Note to self: TGI recorded for `COc1cccc(/C=C2\CCCc3ccccc3C2=O)c1` was 34.2

###

Tested on: RPMI-8226 leukemia
Assay: NCI tumour cell line growth inhibition, 48 h
I'd appreciate it if you could supply TGI values for the items below.

TGI reported for this molecule `c1ccc(N=C(Nc2ccccc2)N2CCCC2)cc1` : > 100 µM

Given item C=C1C(C2(C)C(OC(C)=O)CC(=O)OC(C)(COC(C)=O)C2CC(=O)OC)C(OC=O)C(OC(=O)C(O)C(C)CC)C2(C)C(c3ccoc3)CC(=O)C12O (stereo not drawn) , the value recorded as its TGI is > 100 µM

// TGI lookup, molecule = `Nc1nc(Cl)c(/C=N\O)c(NCC2(CO)CCC2)n1` , result: > 100 µM

Form: molecule = CC(=Nc1ccccc1)C1=C(O)C(Cc2ccc(O)cc2)NC1=O (stereo not drawn) ; TGI = > 100 µM

Entry `Clc1nssc1=Nc1nonc1-c1ccccc1` — recorded TGI = 63.3 µM

# molecule CC(O)c1cc2c(s1)C(=O)c1ccsc1C2=O (stereo not drawn) ; its TGI = 0.416 µM

Lab note: `CC(=O)[C@@H]1C/C(=C\OCc2ccccc2)O[C@H]1C` gave TGI of > 100 µM

TGI reading for `Nc1c2c(c(O)c3c1=C(CO)C=N3)=NCCS2` : 3.12 µM

###

Please respond with reported TGI for every item in the list.
System: TK-10 renal
Assay: NCI tumour cell line growth inhibition, 48 h

Let me check: C=C(NC(=O)C(=C)NC(=O)c1csc(C2=NC3c4csc(n4)C4NC(=O)c5csc(n5)C(C(C)(O)C(C)O)NC(=O)C5CSC(=N5)C(=CC)NC(=O)C(C(C)O)NC(=O)c5csc(n5)C3(CC2)NC(=O)C(C)NC(=O)C(=C)NC(=O)C(C)NC(=O)C(C(C)CC)NC2C=Cc3c(C(C)O)cc(nc3C2O)C(=O)OC4C)n1)C(N)=O (centres undefined) , system TK-10 renal, measured TGI is > 100 µM

Observed TGI on TK-10 renal, entry `Nc1ccc2c(=O)cc(-c3cccs3)[nH]c2n1` , equals > 100 µM

Given the compound `CCCC[C@H]1[C@@H](OCOc2ccccc2)COC(=O)N1[C@H](C)c1ccccc1` and test system TK-10 renal, the measured TGI is 39 µM

TGI for TK-10 renal with input `O=c1[nH]/c(=C/c2ccc(OCc3ccccc3)cn2)c(=O)[nH]/c1=C/c1ccc(F)cc1` equals > 39.7 µM

Result for C[C@]12CC[C@H](OC3OC(CO)C(O)C(O)C3O)C[C@H]1CC[C@@H]1[C@@H]2CC[C@]2(C)[C@@H](C3=CCOC3=O)CC[C@]12O (some centres undefined) , tested on TK-10 renal, TGI: > 100 µM

Param item: C=CC1CCC[N+]1(CC(=O)OCC)Cc1ccccc1 (centres undefined) ; param system: TK-10 renal; output TGI: > 100 µM

The value of TGI recorded for `C/C(=N\n1c(Cc2ccccc2)n[nH]c1=O)c1ccccc1` when tested on TK-10 renal reads > 100 µM

Param item: `NC(N)=NS(=O)(=O)c1ccc(NNc2c3ccccc3nc3c(C(=O)Nc4ccc(S(=O)(=O)N=C(N)N)cc4)cccc23)cc1` ; param system: TK-10 renal; output TGI: > 100 µM

The compound `CCOC(=O)Cc1ccc2c(c1O)C(=O)c1c(ccc(CC(=O)OCC)c1O)C2=O` , tested on TK-10 renal, showed TGI of > 100 µM
